Data origin, for the record: PubChem BioAssay (NCI)

# Test system: OVCAR-8 ovarian
# test.protocol: NCI tumour cell line growth inhibition, 48 h; in the data active = GI50 below about 0.43 µM; inactive = the rest
The categories you may choose from are T for active, F for inactive

molecule: C#C[C@]1(O)CC[C@H]2[C@@H]3CC=C4c5nc(N)sc5CC[C@]4(C)[C@H]3CC[C@@]21C
qualitative.label: F

Challenge: Query: recorded result category for CCCCCC[C@H]1C(=O)O[C@H](C)[C@H](NC(=O)c2cccc(NC=O)c2OC)C(=O)O[C@@H](C)[C@@H]1OC(=O)CCC (tested in a mixture with another compound) in this test
Response given: F

Challenge: What did this assay record as the result for CC1(C)C2CCC13C(=O)C1OC3(C2)C2C(=O)c3c(ccc4c3ccc3ccccc34)C(=O)C12 (configuration not stated) ?
Response given: F

Challenge: Per the assay record, what outcome was assigned to CCOC1Oc2ccc(C)cc2C(=O)/C1=C\Nc1ccc(S(N)(=O)=O)cc1 (configuration not stated) ?
Response given: F

Challenge: Fill in: this test's call for COc1ccc(C2=Nn3c(nnc3-n3nc(C)cc3C)SC2)cc1 is ___
Response given: T

Challenge: I would be grateful if you could indicate the recorded call for Cc1cc(NN=C(c2ccc(O)cc2)c2ccc(O)cc2)c([N+](=O)[O-])cc1[N+](=O)[O-] .
Response given: F

Challenge: So what was the verdict on COc1ccc(/C=C/C(=O)c2cc3c(N)c(C(=O)Nc4ccc(OC)cc4)sc3nc2C)cc1 in this test?
Response given: T

Challenge: Given C=CC(=O)Nc1cc2c(Nc3ccc(F)c(Cl)c3)ncnc2cc1C#CC(C)(C)N1CCN(C)CC1 , state the outcome it received in this test.
Response given: F

Challenge: Outcome? O=[N+]([O-])/C=C/c1ccc(Cl)cc1[N+](=O)[O-]
Response given: F

Challenge: Tell me the assay call for N#[N+]c1ccc(Nc2ccccc2)cc1 please.
Response given: F

Challenge: Test call, this molecule: COc1ccc(C(O)c2cc3c(N)c(C(=O)Nc4cccc(Br)c4C)sc3nc2C)cc1 (configuration not stated)
Response given: T

Challenge: GET /call?item= COc1ccc(C2NC(=S)NC3=C2CCOc2c3ccc3ccccc23)cc1 (configuration not stated) returns the recorded outcome of this test.
Response given: F

====

In this section we review reported TGI values for a set of molecules.
# Test system: NCI/ADR-RES ovarian
# test.protocol: NCI tumour cell line growth inhibition, 48 h
Just the number in µM, nothing appended.

molecule: O=C(Nc1ccccc1)Oc1ccc(C(=S)Nc2ccc(Br)cc2)cc1
TGI [µM]: 39.7

molecule: COc1ccccc1N/C(SCc1ccccc1)=C(/C(Cl)=C(Cl)Cl)[N+](=O)[O-]
TGI [µM]: 78.8

molecule: CC(C)(C)O/N=C/c1cc(NC(=S)c2ccsc2)ccc1Cl
TGI [µM]: 33.9

Challenge: Test system NCI/ADR-RES ovarian; read-out TGI; what value for C[As](C)SC1OCC(O)C(O)C1O (configuration not stated) ?
Response given: 0.602

====

# Tested on: SN12C renal
# test.protocol: NCI tumour cell line growth inhibition, 48 h
observed.property: TGI

Here is how some compounds turned out for TGI.
compound: CCCCCC[C@H]1C(=O)O[C@H](C)[C@H](NC(=O)c2cccc(NC=O)c2OC)C(=O)O[C@@H](C)[C@@H]1OC(=O)CCC (tested in a mixture with another compound)
TGI: 37.1 µM
--
compound: O=[N+]([O-])c1ccc(-c2nn3c(C45CC6CC(CC(C6)C4)C5)nnc3s2)c(Cl)c1
TGI: > 100 µM
--
compound: CCN(c1ccccc1)[C@H]1C(=O)N(c2ccc([N+](=O)[O-])cc2)[C@H]1c1ccc(OC)cc1
TGI: > 100 µM
--
compound: O=[N+]([O-])c1cccc(Nc2nc(Cl)nc(Cl)n2)c1
TGI: > 100 µM

Below: the item to evaluate.
Challenge: Tell me the measured TGI of CCOc1nc2c(N3CCCC3)nc(N3CCNCC3)nc2nc1NCc1ccccc1 , please.
Response given: 2.96 µM

====

# Tested on: SF-295 CNS
# test.protocol: NCI tumour cell line growth inhibition, 48 h
// reported TGI for each item listed

Solved entries (count: 2):
compound: O=C1Cc2cn[nH]c2-c2ccccc2N1
TGI: > 100 µM
//
compound: Oc1ccccc1C=Nc1ccc(-c2nc3ccccc3s2)cc1
TGI: 55.9 µM

Turning now to a further record.
Challenge: Query (compound): COc1cccc(C23CCN(C)C(CC(O)C2)C3)c1OC (stereo unspecified) ; field requested: TGI
Response given: > 100 µM

====

In this section, each of the compounds is paired with its reported TGI.
# Test system: OVCAR-5 ovarian
# test.protocol: NCI tumour cell line growth inhibition, 48 h

For orientation, consider the following solved cases.
compound: O=C(NCCN1CCCCC1)c1cccc(I)c1
TGI: > 100 µM
--
compound: O=C(O)c1ccccc1NCn1c(=S)sc2ccccc21
TGI: > 100 µM
--
compound: CC(C)[C@H]1NC(=O)[C@H]2N=C(S[C@H]2C)[C@@H]2CCCN2C(=O)[C@H](Cc2ccccc2)NC(=O)[C@@H]2CSC(=N2)[C@@H](Cc2ccccc2)NC(=O)[C@@H]2CSC1=N2
TGI: > 50 µM
--
compound: CC1(C)OC(=O)C(=C2CCC(C(=O)Nc3cccc(C(F)(F)F)c3)N2)C(=O)O1 (stereo not given)
TGI: > 100 µM

Challenge: Form field: reported TGI of CCOC(=O)CCC(NC(=O)c1ccc(NC(OC)c2nc3cc(C(F)(F)F)ccc3nc2-c2ccccc2)cc1)C(=O)OCC (stereo not given)
Response given: 31.5 µM

Challenge: I'd like to know its TGI. The compound in question is COc1ccc(-c2nc(-c3cnccn3)n(C3OC(CO)C(O)C3O)n2)cc1 (stereo not given)
Response given: > 10 µM

Challenge: Which TGI value belongs to COCC(C(=O)OC1C/C=C/C=C/C(=O)OC(C(C)C(O)C(C)CCC(OC(=O)C(C)N(C)C)C(C)C(OC(C)=O)C(C)/C=C/N(C)C=O)C/C=C/C(OC)CC(C)C/C=C(\C)C(OC)CCC(C)C(O)C1C)N(C)C (stereo not given) ?
Response given: 0.162 µM

Challenge: Report TGI for CNC(=O)OCc1nc(SC)n(C)c1COC(=O)NC please.
Response given: 451 µM

Challenge: Consider the compound shown here: COC(=O)/C=C/[C@@H]1[C@H](C)N1S(=O)(=O)c1ccc(C)cc1 (stereo not given in full) What is its recorded TGI?
Response given: > 100 µM

Challenge: I would be grateful if you could share the reported TGI for COc1ccc(C)cc1NC(=S)C#N .
Response given: > 100 µM

====

# System: A498 renal
# test.protocol: NCI tumour cell line growth inhibition, 48 h
Measured TGI of individual entries

Some solved entries appear below for comparison.
compound: C[C@@H]1CC[C@@H]2[C@@H](C1)O[C@@H]([C@@H](C)OCc1ccccc1)SC2(C)C
TGI: 32 µM
--
compound: Cc1[nH]c(-c2ccccc2)c2nc(N(C)C)oc(=O)c12
TGI: > 100 µM
--
compound: COc1ccc(-c2c(N)noc2-c2cc(OC)c3c(c2)OCCO3)cc1
TGI: 0.303 µM

Challenge: # input compound: NC(=O)/C(=C/n1cnc(-c2cc(C(F)(F)F)cc(C(F)(F)F)c2)n1)c1cncnc1 ; wanted: its TGI
Response given: 1.26 µM

Challenge: For the compound O=CNc1ccccc1OCCOc1ccccc1NC=O , what TGI is on record?
Response given: > 100 µM

Challenge: For NC1=NCN(C2OC(CO)C(O)C2O)C(=O)N1 (stereo unspecified) , what is its reported TGI?
Response given: 804 µM

Challenge: Request the reported TGI associated with COC(=O)/C=C\C(C#N)(C#N)N=Cc1ccc(OC)cc1
Response given: 33 µM

Challenge: Quick check: TGI of COc1cc2c3cc1Oc1c(OC)c(OC)cc4c1C(Cc1ccc(O)c(c1)Oc1ccc(cc1)CC3N(C)CC2)N(C)CC4 (stereo unspecified) ?
Response given: 48.4 µM

Challenge: Entry under review: CC1(C)N=C(N)N=C(N)N1c1cccc(CCc2ccccc2)c1 . Reported TGI?
Response given: 96.9 µM

Challenge: Tell me the measured TGI of Cc1cc(NS(=O)(=O)c2ccc(N=[N+]([O-])c3ccc(S(=O)(=O)Nc4cc(C)on4)cc3)cc2)no1 , please.
Response given: > 100 µM

Challenge: Need TGI, item CCCCOC/N=C(/N)NC#N
Response given: > 100 µM

Challenge: For C#C[C@]1(O)CC[C@H]2[C@@H]3CCc4cc(O)ccc4[C@H]3CC[C@@]21C , what is its reported TGI?
Response given: 77.4 µM

====

// values below are reported TGI
# Tested on: HCC-2998 colon
# test.protocol: NCI tumour cell line growth inhibition, 48 h

molecule: O=C(Nc1ccccc1)OCCN=C1c2ccccc2CCc2ccccc21
target.of.assay: HCC-2998 colon
TGI: 45.9 µM

molecule: O=C(Cn1c2ccc(Br)cc2c2nc3ccccc3nc21)Nc1ccccc1
target.of.assay: HCC-2998 colon
TGI: > 100 µM

molecule: O=P(NCCCO)(OCc1ccccc1)N(CCCl)CCCl (centres undefined)
target.of.assay: HCC-2998 colon
TGI: > 100 µM

molecule: COc1ccc(C(O)c2cc3c(N)c(C(=O)Nc4cccc(Br)c4C)sc3nc2C)cc1 (centres undefined)
target.of.assay: HCC-2998 colon
TGI: 2.84 µM

molecule: COc1cccc(-c2nc3sccn3c2-c2ccnc(NCCCNS(=O)(=O)c3ccccc3)c2)c1
target.of.assay: HCC-2998 colon
TGI: > 100 µM

molecule: C[C@@H]1CC[C@H]2[C@H](C)C(OC3O[C@@H]4O[C@@]5(C)CC[C@H]6[C@H](C)CC[C@@H]([C@@H]3C)[C@@]46O5)O[C@@H]3O[C@@]4(C)CC[C@@H]1[C@]32O4 (some centres undefined)
target.of.assay: HCC-2998 colon
TGI: > 100 µM

molecule: CCCCCCCCCCCCOCC1(COCCCCCCCCCCCC)COC(c2ccc(N)cc2)OC1
target.of.assay: HCC-2998 colon
TGI: > 100 µM

molecule: C[C@@H]1CC[C@@H]2[C@@H](C1)O[C@@H]([C@@H](C)OCc1ccccc1)SC2(C)C
target.of.assay: HCC-2998 colon
TGI: 33.7 µM

Field: next molecule
Challenge: Any idea what its TGI is? The molecule is Cc1[nH]c(-c2ccccc2)c2nc(N(C)C)oc(=O)c12
Response given: > 100 µM
